meta.source: patent US20260256811A1

# Experiment: in vivo
# Reported conditions: mouse, po, 100 mg/kg
Experimental endpoint: Cmax

# Molecule, Experimental endpoint, Observed measurement
records = [
    ("C[C@H](CCCN1CCCCC1)[C@H]1CC[C@@]2(C)C3CC[C@H]4C(C)(C)[C@@H](O)CC[C@@]45C[C@@]35CC[C@]12C (stereo partly shown)", "Cmax", "511 ng/mL"),
]

---

# Experiment: in vivo
# Reported conditions: mouse, po, 100 mg/kg

# Compound, Units of measure, half-life
rows = [
    ("C[C@H](CCCN1CCCCC1)[C@H]1CC[C@@]2(C)C3CC[C@H]4C(C)(C)[C@@H](O)CC[C@@]45C[C@@]35CC[C@]12C (stereo partly shown)", "h", 18.3),
]
